Tested on: MDA-MB-435
Assay: Growth inhibition of human MDA-MB-435 cells assessed as cell growth at 10^-5 M incubated for 48 hrs by sulforhodamine B assay relative to control
Type: functional
Conditions: MDA-MB-435, 48 h, read-out: Activity
Measurement type: growth at 10 µM (%)
The reply should be a number in %, with the unit left off.

Exam item: Would you mind telling me what growth at 10 µM value was observed for c1ccc2c(c1)[nH]c1c(-c3ccc(-c4nccc5c4[nH]c4ccccc45)cc3)nccc12 ?
Marked response: 109

Exam item: Would you mind telling me what growth at 10 µM value was observed for Cc1ccc(S(=O)(=O)N2CCc3c([nH]c4ccccc34)C2c2ccc(-c3nc4ccccc4[nH]3)cc2)cc1 (stereo unspecified) ?
Marked response: 93.4

Exam item: Would you mind telling me what growth at 10 µM value was observed for O=Cc1ccc(C2NCCc3c2[nH]c2ccccc32)cc1 (stereo unspecified) ?
Marked response: 107

Exam item: Would you mind telling me what growth at 10 µM value was observed for Cc1ccc(S(=O)(=O)N2CCc3c([nH]c4ccccc34)C2c2ccc(C=O)cc2)cc1 (stereo unspecified) ?
Marked response: 93.4

Exam item: Would you mind telling me what growth at 10 µM value was observed for c1ccc2[nH]c(-c3ccc(C4NCCc5c4[nH]c4ccccc54)cc3)nc2c1 (stereo unspecified) ?
Marked response: 101

Exam item: Would you mind telling me what growth at 10 µM value was observed for Cc1n[nH]c2c1C(c1ccc(C3NCCc4c3[nH]c3ccccc43)cc1)C(C#N)=C(N)O2 (stereo unspecified) ?
Marked response: 96.3
